- system_tested: canine TRPM8 (Canis lupus familiaris, UniProt Q1A7N1)
- Sequence (Q1A7N1 1-1104): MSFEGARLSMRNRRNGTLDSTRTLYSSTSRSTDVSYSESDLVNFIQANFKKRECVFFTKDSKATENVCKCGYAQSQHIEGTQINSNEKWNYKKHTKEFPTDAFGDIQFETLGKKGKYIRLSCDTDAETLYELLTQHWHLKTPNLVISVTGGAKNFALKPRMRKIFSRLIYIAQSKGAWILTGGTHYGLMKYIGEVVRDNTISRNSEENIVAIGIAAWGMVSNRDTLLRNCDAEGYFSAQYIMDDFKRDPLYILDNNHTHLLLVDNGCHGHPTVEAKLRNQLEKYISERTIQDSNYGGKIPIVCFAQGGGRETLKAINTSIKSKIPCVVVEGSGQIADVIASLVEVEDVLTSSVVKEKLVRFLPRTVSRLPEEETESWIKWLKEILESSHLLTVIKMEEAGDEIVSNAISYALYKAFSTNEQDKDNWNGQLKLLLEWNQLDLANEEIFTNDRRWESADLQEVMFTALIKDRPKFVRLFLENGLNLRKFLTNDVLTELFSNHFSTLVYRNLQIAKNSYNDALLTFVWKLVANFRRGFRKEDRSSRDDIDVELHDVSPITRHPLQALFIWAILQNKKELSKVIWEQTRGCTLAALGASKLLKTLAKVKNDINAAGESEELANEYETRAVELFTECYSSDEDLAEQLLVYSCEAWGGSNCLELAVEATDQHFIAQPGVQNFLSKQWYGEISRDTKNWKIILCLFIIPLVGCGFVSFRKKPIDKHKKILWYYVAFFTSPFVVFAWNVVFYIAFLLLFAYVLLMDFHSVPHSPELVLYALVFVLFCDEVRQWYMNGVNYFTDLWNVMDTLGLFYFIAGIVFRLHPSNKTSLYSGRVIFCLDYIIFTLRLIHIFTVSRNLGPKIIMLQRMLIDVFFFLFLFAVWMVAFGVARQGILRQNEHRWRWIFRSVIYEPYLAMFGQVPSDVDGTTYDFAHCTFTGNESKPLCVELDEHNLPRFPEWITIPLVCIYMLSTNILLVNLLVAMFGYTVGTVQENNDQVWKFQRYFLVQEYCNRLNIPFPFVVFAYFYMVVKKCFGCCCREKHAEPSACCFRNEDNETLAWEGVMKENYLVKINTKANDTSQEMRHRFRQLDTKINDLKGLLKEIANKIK
- assay_summary: In Vitro Canine TRPM8 Functional Assay (intracellular Ca2+ fluorescence, icilin challenge)
- test_conditions: HEK293 cells stably expressing canine TRPM8; icilin at ~80% maximal response
Mark 1 only when IC50 stays strictly below 30 nM. Values equal to the cut-off are -1.

stdin: A record lists O=S(=O)(c1ccccc1)N(Cc1ccc(OC(F)(F)F)cc1)c1nc2ccccn2c1Cl [Compound 3] . Is its IC50 below 30 nM?
stdout: 1

stdin: Just wondering, is IC50 of Cc1c(N(Cc2ccc(OC(F)(F)F)cc2)S(=O)(=O)c2ccc(-n3cccn3)cc2)nc2ccc(Cl)cn12 [Compound 104] below 30 nM?
stdout: -1

stdin: Dear reviewer, please state whether Cc1c(N(Cc2cccc(C(F)(F)F)c2)S(=O)(=O)c2ccccc2)nc2ccc(Cl)cn12 [Compound 44] has IC50 strictly beneath 30 nM.
stdout: 1

stdin: Please indicate whether the reported IC50 of O=S(=O)(c1ccc(-n2cccn2)cc1)N(Cc1ccc(C(F)(F)F)c(F)c1)c1nc2ccccn2c1Br [Compound 75] is strictly below 30 nM.
stdout: 1

stdin: IC50 under 30 nM? Item: Cc1c(N(Cc2ccc(OC(F)(F)F)cc2)S(=O)(=O)c2ccccc2)nc2cc(Cl)ccn12 [Compound 14]
stdout: 1

stdin: Given the entry Cc1c(N(Cc2ccc(C(F)(F)F)cc2)S(=O)(=O)c2ccccc2)nc2ccc(Cl)cn12 [Compound 43] , would its reported IC50 be below 30 nM?
stdout: 1

stdin: # strict comparison: is reported IC50 < 30 nM? input = Cc1ccn2c(C)c(N(Cc3ccc(C(F)(F)F)c(F)c3)S(=O)(=O)c3ccccc3)nc2c1 [Compound 27]
stdout: 1

stdin: Consider the compound Cc1ccc2nc(N(Cc3ccc(F)c(C(F)(F)F)c3)S(=O)(=O)c3ccccc3)c(C)n2c1 [Compound 40] . Is its IC50 strictly less than 30 nM?
stdout: 1

stdin: In the record for CCc1c(N(Cc2ccc(C(F)(F)F)c(F)c2)S(=O)(=O)c2ccccc2)nc2cccc(C)n12 [Compound 80] , is IC50 less than 30 nM?
stdout: 1

stdin: Dear reviewer, please state whether CCc1c(N(CCC2CC2)S(=O)(=O)c2ccccc2)nc2c(C(F)(F)F)cccn12 [Compound 63] has IC50 strictly beneath 30 nM.
stdout: 1

stdin: # TODO verify IC50 < 30 nM strictly for this compound: CCc1c(N(Cc2ccc(F)c(C(F)(F)F)c2)S(=O)(=O)c2ccccc2)nc2ccc(Cl)cn12 [Compound 82]
stdout: 1

stdin: Criterion: IC50 strictly below 30 nM. Is it met by COC(=O)c1ccc(S(=O)(=O)N(Cc2ccc(F)c(F)c2)c2nc3ccc(Cl)cn3c2C)cc1 [Compound 111] ?
stdout: -1

stdin: Bench note: check whether Cc1c(N(Cc2ccc(OC(F)(F)F)cc2)S(=O)(=O)c2ccccc2)nc2ccc(Cl)cn12 [Compound 36] shows IC50 below 30 nM
stdout: 1

stdin: Decide: IC50 of Cc1cccn2c(C)c(N(Cc3ccc(OC(F)(F)F)cc3)S(=O)(=O)c3ccc(C(=O)[O-])cc3)nc12.[Na+] [Compound 117] strictly below 30 nM?
stdout: 1

stdin: Hi there! Is IC50 for O=S(=O)(c1ccc(N2CCOCC2)nc1)N(Cc1ccc(C(F)(F)F)c(F)c1)c1nc2ccccn2c1Cl [Compound 91] below 30 nM, do you know?
stdout: -1

stdin: Input COC(=O)c1ccc(S(=O)(=O)N(Cc2ccc(F)c(C(F)(F)F)c2)c2nc3ccc(Cl)cn3c2C)cc1 [Compound 112] ; condition: IC50 strictly below 30 nM. Does it hold?
stdout: -1

stdin: Hello, I'm reviewing records and need to know if IC50 of O=S(=O)(c1ccc(N2CCOCC2)nc1)N(Cc1ccc(C(F)(F)F)c(F)c1)c1nc2ccccn2c1Br [Compound 85] is below 30 nM. Could you check?
stdout: -1

stdin: Does CC(C)c1c(N(Cc2ccc(OC(F)(F)F)cc2)S(=O)(=O)c2ccccc2)nc2ccccn12 [Compound 52] have IC50 strictly under 30 nM?
stdout: 1

stdin: A record lists O=S(=O)(c1ccc(-n2cccn2)cc1)N(Cc1ccc(C(F)(F)F)c(F)c1)c1nc2ccccn2c1Cl [Compound 96] . Is its IC50 below 30 nM?
stdout: 1

stdin: Decide: IC50 of Cc1cccn2c(C)c(N(Cc3ccc(C(F)(F)F)c(F)c3)S(=O)(=O)c3ccccc3)nc12 [Compound 32] strictly below 30 nM?
stdout: 1

stdin: Criterion: IC50 strictly below 30 nM. Is it met by O=S(=O)(c1ccc(N2CCOCC2)nc1)N(Cc1cccc(C(F)(F)F)c1)c1nc2ccccn2c1Cl [Compound 94] ?
stdout: -1

stdin: A record lists Cc1c(N(Cc2ccc(OC(F)(F)F)cc2)S(=O)(=O)c2ccc(C(=O)O)cc2)nc2c(F)cccn12 [Compound 122] . Is its IC50 below 30 nM?
stdout: 1

stdin: Identify whether the compound COC(=O)c1ccc(S(=O)(=O)N(Cc2ccc(OC(F)(F)F)cc2)c2nc3ccccn3c2C(C)C)cc1 [Compound 108] records IC50 below 30 nM.
stdout: 1

stdin: In plain terms, does O=S(=O)(c1ccccc1)N(Cc1ccc(F)c(C(F)(F)F)c1)c1nc2ccccn2c1C1CC1 [Compound 69] come in under 30 nM for IC50?
stdout: 1

stdin: is_below(IC50, 30 nM) for CCc1c(N(Cc2ccc(F)c(C(F)(F)F)c2)S(=O)(=O)c2ccccc2)nc2c(C(F)(F)F)cccn12 [Compound 55] ?
stdout: -1

stdin: Lab note: IC50 threshold 30 nM. Does this compound come in strictly under it? O=S(=O)(c1ccc(F)cc1)N(Cc1ccc(OC(F)(F)F)cc1)c1nc2ccccn2c1Cl [Compound 9]
stdout: 1

stdin: Hello, I'm reviewing records and need to know if IC50 of Cc1ccc2nc(N(Cc3ccc(C(F)(F)F)c(F)c3)S(=O)(=O)c3ccccc3)c(C)n2c1 [Compound 41] is below 30 nM. Could you check?
stdout: 1

stdin: Answer whether the compound O=S(=O)(c1ccc(N2CCOCC2)nc1)N(Cc1ccccc1)c1nc2ccccn2c1Br [Compound 83] has IC50 strictly less than 30 nM
stdout: -1
